target: equine serum BuChE (Equus caballus); construct: equine serum BuChE was used as enzyme; purchased Sigma-Aldrich; host or cells: equine serum; test: In vitro BuChE inhibition assay (Ellman's method, equine serum BuChE); assay type: biochemical
Sequence (P81908 whole entry): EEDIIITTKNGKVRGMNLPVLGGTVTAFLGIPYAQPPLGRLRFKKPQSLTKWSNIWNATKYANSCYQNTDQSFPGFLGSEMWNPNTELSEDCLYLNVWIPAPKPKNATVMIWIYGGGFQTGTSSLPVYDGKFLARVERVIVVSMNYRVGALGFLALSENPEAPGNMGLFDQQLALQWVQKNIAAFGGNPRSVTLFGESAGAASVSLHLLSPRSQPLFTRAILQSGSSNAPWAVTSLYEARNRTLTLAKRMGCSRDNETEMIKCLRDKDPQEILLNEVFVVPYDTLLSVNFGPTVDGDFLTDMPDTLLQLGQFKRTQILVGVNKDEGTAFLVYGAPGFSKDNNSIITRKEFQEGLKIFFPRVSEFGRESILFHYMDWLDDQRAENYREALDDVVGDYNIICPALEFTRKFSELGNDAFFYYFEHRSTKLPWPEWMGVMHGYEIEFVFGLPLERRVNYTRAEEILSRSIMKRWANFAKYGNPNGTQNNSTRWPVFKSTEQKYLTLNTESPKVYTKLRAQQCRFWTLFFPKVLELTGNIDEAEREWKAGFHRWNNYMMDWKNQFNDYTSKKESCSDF
pIC50: −log10 of the molar value.
experimental.endpoint: pIC50

compound: O=C(NN=C(c1ccc(Cl)cc1)c1ccc(Cl)cc1)Nc1ncc([N+](=O)[O-])s1 [Compound 19]
test.target: equine serum BuChE (Equus caballus)
experimental.endpoint: pIC50
endpoint.value: 5.24

###

biological target: rat brain AChE (Rattus norvegicus, UniProt P37136); construct: the resulting clear supernatants obtained were used as enzyme sources; from tissue; host or cells: rat brain cortex homogenate, 10,000 g supernatant; test: biochemical; type: biochemical; conditions: rat brain AChE, ACTI substrate, mean ± SEM, triplicate; read-out: AChE In vitro IC50 (µM) ± SEM
Sequence (P37136 32-614): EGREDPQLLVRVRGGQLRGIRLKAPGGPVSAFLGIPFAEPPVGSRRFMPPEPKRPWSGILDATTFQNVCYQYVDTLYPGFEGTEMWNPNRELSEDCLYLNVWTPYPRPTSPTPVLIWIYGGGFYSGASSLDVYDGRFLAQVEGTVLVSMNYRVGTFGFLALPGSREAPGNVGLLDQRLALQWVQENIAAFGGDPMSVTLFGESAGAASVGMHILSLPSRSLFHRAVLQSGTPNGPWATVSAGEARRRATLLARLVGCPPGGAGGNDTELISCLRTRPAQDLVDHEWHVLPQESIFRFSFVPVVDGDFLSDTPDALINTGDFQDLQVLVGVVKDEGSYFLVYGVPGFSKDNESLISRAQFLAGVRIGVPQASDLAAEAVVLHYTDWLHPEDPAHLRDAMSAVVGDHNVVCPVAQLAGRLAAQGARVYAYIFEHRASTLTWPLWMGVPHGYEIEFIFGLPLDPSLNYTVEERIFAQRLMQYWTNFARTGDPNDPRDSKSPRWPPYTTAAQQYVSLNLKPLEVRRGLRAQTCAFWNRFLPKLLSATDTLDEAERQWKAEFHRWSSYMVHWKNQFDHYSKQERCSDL
Each entry below carries its recorded IC50.
experimental.endpoint: IC50

molecule: CC(=NNC(=O)Nc1ncc([N+](=O)[O-])s1)c1ccc(O)cc1 [Compound 7]
endpoint.value: 12.7 µM
//
molecule: O=C(NN=C1C(=O)Nc2ccccc21)Nc1ncc([N+](=O)[O-])s1 [Compound 20]
endpoint.value: 54.8 µM
//
molecule: O=C(NN=C(c1ccccc1)c1ccccc1)Nc1ncc([N+](=O)[O-])s1 [Compound 16]
endpoint.value: 4.86 µM
//
molecule: O=C(NN=C(c1ccccc1)c1ccc(O)cc1)Nc1ncc([N+](=O)[O-])s1 [Compound 18]
endpoint.value: 2.66 µM
